# Tgt: TTK (Homo sapiens)
# Sequence (P33981 whole entry): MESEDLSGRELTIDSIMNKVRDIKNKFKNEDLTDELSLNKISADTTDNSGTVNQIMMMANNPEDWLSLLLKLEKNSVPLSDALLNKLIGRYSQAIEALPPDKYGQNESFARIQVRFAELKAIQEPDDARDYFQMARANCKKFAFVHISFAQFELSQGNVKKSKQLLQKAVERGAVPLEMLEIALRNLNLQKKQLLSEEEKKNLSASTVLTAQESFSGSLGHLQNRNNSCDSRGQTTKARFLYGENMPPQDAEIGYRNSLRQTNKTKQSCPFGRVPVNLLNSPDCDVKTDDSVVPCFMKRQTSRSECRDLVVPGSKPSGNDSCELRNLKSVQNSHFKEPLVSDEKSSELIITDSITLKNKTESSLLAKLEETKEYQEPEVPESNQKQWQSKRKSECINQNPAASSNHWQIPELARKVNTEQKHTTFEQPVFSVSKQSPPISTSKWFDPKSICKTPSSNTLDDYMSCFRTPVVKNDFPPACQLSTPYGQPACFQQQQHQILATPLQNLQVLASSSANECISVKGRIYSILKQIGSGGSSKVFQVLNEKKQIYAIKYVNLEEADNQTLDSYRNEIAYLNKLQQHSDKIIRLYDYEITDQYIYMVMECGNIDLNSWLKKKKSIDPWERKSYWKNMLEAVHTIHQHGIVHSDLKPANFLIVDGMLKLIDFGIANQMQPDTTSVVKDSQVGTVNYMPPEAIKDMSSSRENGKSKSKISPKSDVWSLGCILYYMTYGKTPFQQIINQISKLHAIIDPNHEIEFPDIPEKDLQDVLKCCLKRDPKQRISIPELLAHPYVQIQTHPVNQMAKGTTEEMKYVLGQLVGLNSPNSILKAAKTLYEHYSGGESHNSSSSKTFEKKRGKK
# Method: TTK assay: screening of TTK kinase activity suppressing action using p38 MAPK peptide
# Format: biochemical
# Measurement Conditions: p38 MAPK peptide substrate; read-out: TTK IC50
We'd kindly ask you to apply these IC50 classes: low interval = under 4 nM, middle interval = from 4 nM up to 6 nM, high interval = 6 nM and over

CCC(C)CNc1cc(NC2CCCCC2)nn2c(-c3ccc(C(=O)NC4CC4)cc3)cnc12 (stereo not shown) :: high interval
O=C(NC1CC1)c1ccc(-c2cnc3c(NCC4CCOCC4)cc(NC4CCCCC4O)nn23)cc1 (stereo not shown) :: middle interval
CCC(C)Nc1cc(NC2CCCCC2)nn2c(-c3ccc(C(=O)NC4CC4)cc3)cnc12 (stereo not shown) :: high interval
N#Cc1ccc(-c2cn3c(-c4ccc(C(=O)NC5CC5)cc4)cnc3c(NCc3cccs3)n2)cc1 :: high interval
COc1ccccc1Oc1cc(NCC2CCOCC2)c2ncc(-c3ccc(C(=O)NC4CC4)cc3)n2n1 :: low interval
O=C(NC1CC1)c1ccc(-c2cnc3c(NCC4CCSCC4)cc(NC4CCCCC4)nn23)cc1 :: middle interval
CC(C)C(C)Nc1cc(NCC2CCOCC2)c2ncc(-c3ccc(C(=O)NC4CC4)cc3)n2n1 (stereo not shown) :: middle interval
O=C(NC1CC1)c1ccc(-c2cnc3c(NCc4cccs4)cc(NC4CCCCC4)nn23)cc1 :: low interval
CCC(C)CNc1cc(NCC2CCOCC2)c2ncc(-c3ccc(C(=O)NC4CC4)cc3)n2n1 (stereo not shown) :: middle interval
COC1CCN(c2cc(NCC3CCOCC3)c3ncc(-c4ccc(C(=O)NC5CC5)cc4)n3n2)CC1 :: high interval
CC(C)(C)CNc1cc(NCC2CCOCC2)c2ncc(-c3ccc(C(=O)NC4CC4)cc3)n2n1 :: middle interval
O=C(NC1CC1)c1ccc(-c2cnc3c(NCC4CCOCC4)cc(N4CCCCC4)nn23)cc1 :: high interval
O=C(NC1CC1)c1ccc(-c2cnc3c(NCC4CCOCC4)cc(Oc4cc(F)ccc4O)nn23)cc1 :: low interval
CC(C)N(C)c1cc(NCC2CCOCC2)c2ncc(-c3ccc(C(=O)NC4CC4)cc3)n2n1 :: middle interval
